Target: BChE (Rattus norvegicus)
Sequence (Q9JKC1 24-597): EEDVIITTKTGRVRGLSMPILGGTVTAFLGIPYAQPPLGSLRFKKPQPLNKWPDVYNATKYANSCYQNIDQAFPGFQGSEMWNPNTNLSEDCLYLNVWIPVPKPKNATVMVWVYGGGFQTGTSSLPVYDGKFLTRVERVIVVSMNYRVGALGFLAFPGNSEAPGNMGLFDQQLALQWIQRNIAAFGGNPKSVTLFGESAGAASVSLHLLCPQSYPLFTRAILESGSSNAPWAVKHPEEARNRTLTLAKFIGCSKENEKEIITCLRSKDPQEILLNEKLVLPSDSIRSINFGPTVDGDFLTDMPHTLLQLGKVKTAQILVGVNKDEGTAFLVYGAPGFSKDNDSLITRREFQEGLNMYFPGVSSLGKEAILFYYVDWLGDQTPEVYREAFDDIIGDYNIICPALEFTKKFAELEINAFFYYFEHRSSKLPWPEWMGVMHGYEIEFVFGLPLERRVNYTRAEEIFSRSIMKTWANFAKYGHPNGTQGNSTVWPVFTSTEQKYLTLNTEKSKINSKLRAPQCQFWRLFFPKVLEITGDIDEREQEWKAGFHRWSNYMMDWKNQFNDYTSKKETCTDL
Assay: biochemical
Set-up: species or system Sprague–Dawley rat
Conditions: rat serum BChE, Mean ± SD, triplicate
I'd be grateful if you could share measured log10 IC50 for these entries.
Give log10 of IC50, with IC50 taken in µM.

Use these answered entries as a reference point.
| molecule | log10 IC50 |
| --- | --- |
| C/C=C/C=C/C(=O)Nc1ccc(OCCN(CC)CC)cc1 [Compound 18e] | 1.98 |
| O=C(C=Cc1ccccc1)Nc1ccc(OCCN2CCCC2)cc1 [Compound 6g] | 2.02 |

Hi! Can you tell me log10 IC50 for each of these molecules?
1. O=C(C=Cc1ccccc1)Nc1ccc(OCCN2CCCCC2)cc1 [Compound 6f]
2. CN(C)CCOc1ccc(NC(=O)C=Cc2ccccc2)cc1 [Compound 6d]
3. O=C(CCc1ccccc1)Nc1ccc(OCCN2CCCC2)cc1 [Compound 12g]
4. CCCCCC(=O)Nc1ccc(OCCN(CC)CC)cc1 [Compound 24e]
5. O=C(CCc1ccccc1)Nc1cccc(OCCN2CCCC2)c1 [Compound 11g]
6. C/C=C/C=C/C(=O)Nc1ccc(OCCN(C)C)cc1 [Compound 18d]
7. C/C=C/C=C/C(=O)Nc1ccc(OCCN2CCCCC2)cc1 [Compound 18f]

Result:
[1.98, 2.05, 1.99, 1.00, 1.92, 2.35, 2.43]

Provenance of the data: paper PMC6010128
